EXPERIMENT DESCRIPTION: Pharmacokinetics after repeated administration (Q7D×3) to rats
Type: in vivo
EXPERIMENTAL SETUP: rat, plasma, iv; TH302 in rats, 25 mg/kg Q7D×3, Day 15; read-out: Vss
OBSERVATION TYPE: Vd (L/kg)
Return type: number; implicit unit L/kg.

Per the records, this molecule ( Cn1c(COP(=O)(NCCBr)NCCBr)cnc1[N+](=O)[O-] [TH302] ) has Vd equal to 8.28

* * *

EXPERIMENT DESCRIPTION: Pharmacokinetics in Sprague-Dawley rats (single dose i.v. and p.o.)
Format: in vivo, male Sprague-Dawley rats
EXPERIMENTAL SETUP: male, Sprague-Dawley, rat, plasma, iv, 1 mg/kg, rats, 1 mg/kg i.v. bolus, individual animals
Description: Pharmacokinetic studies were performed in male CD-1 (50 mg/kg i.p. or orally (p.o.)) or female nude mice (50 mg/kg i.v. or i.p.), male Sprague-Dawley rats (1, 5, 20 and 50 mg/kg i.v. and 100 mg/kg, p.o.), beagle dogs (20 mg/kg, i.v.) and cynomologus monkeys (20 mg/kg i.v.). Plasma TH302 concentrations were analyzed using a LC/MS method and the pharmacokinetic parameters computed using a noncompartmental method. Interspecies scaling was performed according to standard methods. […]
OBSERVATION TYPE: AUC(0-inf)

Per the records, this compound ( Cn1c(COP(=O)(NCCBr)NCCBr)cnc1[N+](=O)[O-] [TH302] ) has AUC(0-inf) equal to 178 ng·h/mL

* * *

EXPERIMENT DESCRIPTION: Pharmacokinetics of TH302 in Beagle Dogs (Table 6)
Assay type: in vivo
EXPERIMENTAL SETUP: female, dog, plasma, intravenous, Females, 8 mg/kg
OBSERVATION TYPE: AUC (ng·h/mL)
Return type: number; implicit unit ng·h/mL.

Per the records, this molecule ( Cn1c(COP(=O)(NCCBr)NCCBr)cnc1[N+](=O)[O-] ) has AUC equal to 3400

* * *

EXPERIMENT DESCRIPTION: Pharmacokinetics of TH302 in Beagle Dogs (Table 6)
Format: in vivo
EXPERIMENTAL SETUP: male, dog, plasma, intravenous, Males, 16 mg/kg
OBSERVATION TYPE: clearance (mL/min/kg)
Return type: number; implicit unit mL/min/kg.

Per the records, this molecule ( Cn1c(COP(=O)(NCCBr)NCCBr)cnc1[N+](=O)[O-] [TH302] ) has clearance equal to 43

* * *

EXPERIMENT DESCRIPTION: Pharmacokinetics of TH302 in Beagle Dogs (Table 6)
Assay type: in vivo
EXPERIMENTAL SETUP: female, dog, plasma, intravenous, Females, 8 mg/kg, read-out: T½ (converted)
OBSERVATION TYPE: half-life (min)
Return type: number; implicit unit min.

Per the records, this compound ( Cn1c(COP(=O)(NCCBr)NCCBr)cnc1[N+](=O)[O-] [TH302] ) has half-life equal to 15.1

* * *

EXPERIMENT DESCRIPTION: Pharmacokinetics in Sprague-Dawley rats (single dose i.v. and p.o.)
Assay type: in vivo, male Sprague-Dawley rats
EXPERIMENTAL SETUP: male, Sprague-Dawley, rat, plasma, iv, 50 mg/kg, rats, 50 mg/kg i.v. bolus, MEAN; read-out: AUC(0-t)
OBSERVATION TYPE: AUC(0-t) (ng·h/mL)
Return type: number; implicit unit ng·h/mL.

Per the records, this molecule ( Cn1c(COP(=O)(NCCBr)NCCBr)cnc1[N+](=O)[O-] ) has AUC(0-t) equal to 8460
